Test system: CU-ACC2
Test: area under concentration-response curve (viability) (AUC (a.u.)); higher = less active
Conditions: 48 h
Consider the following compounds and their measured area under concentration-response curve readings.
assay-endpoint: area under concentration-response curve

INSERT INTO results (compound, assay_endpoint, recorded_value) VALUES
  ('Clc1ccc(C(c2ccc(Cl)cc2)[n+]2ccn(CC(OCc3ccc(Cl)cc3Cl)c3ccc(Cl)cc3Cl)c2)cc1 (stereo unspecified)', 'area under concentration-response curve', 528),
  ('CN(C)c1ccc(-c2nc3c(N4CCN(CC(=O)Nc5nccs5)CC4)c(Cl)cnc3[nH]2)cc1', 'area under concentration-response curve', 658),
  ('COc1c(C)cnc(Cn2cnc3c(Cl)nc(N)nc32)c1C', 'area under concentration-response curve', 378),
  ('Oc1cc(O)cc(/C=C/c2ccc(O)c(O)c2)c1', 'area under concentration-response curve', 511),
  ('COC(=O)[C@@H]1[C@H]2C[C@H]3c4[nH]c5ccccc5c4CCN3C[C@@H]2CC[C@@H]1O', 'area under concentration-response curve', 458),
  ('C[C@@H]1CCN(C(=O)N2CCCC2)C[C@@H]1N(C)c1ncnc2[nH]ccc12', 'area under concentration-response curve', 562),
  ('O=C(NCCCNc1nc(Nc2cccc(CN3CCOCC3)c2)ncc1C1CC1)C1CCC1', 'area under concentration-response curve', 452),
  ('CN1CCN(CC1)C2=CC=C(NC3=NC=C4\C=C(\C#N)C(=O)N(C5CCCC5)C4=N3)C=C2', 'area under concentration-response curve', 588),
  ('Clc1ccc2ncc(-c3cccc(NC4CNC4)n3)n2c1', 'area under concentration-response curve', 644),
  ('N=C(N)Nc1ccc(C(=O)Oc2ccc3cc(C(=N)N)ccc3c2)cc1', 'area under concentration-response curve', 585),
  ('CCc1nc(N)nc(N)c1-c1ccc(Cl)cc1', 'area under concentration-response curve', 564),
  ('OC[C@H]1O[C@@H](O[C@@H]2[C@@H](CO)O[C@](O)(CO)[C@H]2O)[C@H](O)[C@@H](O)[C@H]1O', 'area under concentration-response curve', 569),
  ('Nc1nc(OCc2cc(Br)cs2)c2[nH]cnc2n1', 'area under concentration-response curve', 616),
  ('C[C@@H]1O[C@@H](O[C@@H]2C=C3CC[C@@H]4[C@H](CC[C@]5(C)[C@@H](c6ccc(=O)oc6)CC[C@]45O)[C@@]3(C)CC2)[C@H](O)[C@H](O)[C@H]1O', 'area under concentration-response curve', 307),
  ('N=C1N[C@H]2[C@H](CS[C@H]2CCCCC(=O)O)N1', 'area under concentration-response curve', 256),
  ('O=c1sn(-c2cccc3ccccc23)c(=O)n1Cc1ccccc1', 'area under concentration-response curve', 501),
  ('CN1CCC(CC1)COC2=CN=C(N=C2)C3=CC(=CC=C3)CN4/N=C(\C=C/C4=O)C5=CC(=CC=C5)C#N', 'area under concentration-response curve', 596),
  ('C[C@H]1C[C@@H]2[C@H](CC[C@@]3(C)[C@H]2CC[C@]3(OC(C)=O)C(C)=O)[C@@]\4(C)CCC(=O)\C=C14', 'area under concentration-response curve', 618),
  ('CCCCn1c(=O)n(Cc2ccccc2F)c(=O)c2nc(Cc3ccc(NC(C)=O)cc3)[nH]c21', 'area under concentration-response curve', 543),
  ('N[S+](=O)([O-])c1cccc2c1C(=O)c1cccc(O)c1C2=O', 'area under concentration-response curve', 380),
  ('C[S+](=O)([O-])N1CCc2c(-c3cnc(N)nc3)nc(N3CCOCC3)nc21', 'area under concentration-response curve', 345),
  ('OC1CCC(Nc2ncc3nc(Nc4c(F)cc(F)cc4F)n([C@@H]4CCOC4)c3n2)CC1 (stereo partly specified)', 'area under concentration-response curve', 531),
  ('c1cc(CN2CCCNCCNCCCNCC2)ccc1CN1CCCNCCNCCCNCC1', 'area under concentration-response curve', 337),
  ('Cc1ccc(O)c(C(CCN(C(C)C)C(C)C)c2ccccc2)c1.Cl (stereo unspecified)', 'area under concentration-response curve', 625),
  ('CC(C)(C)C(=O)OCOP(=O)(COCCn1cnc2c(N)ncnc21)OCOC(=O)C(C)(C)C', 'area under concentration-response curve', 527),
  ('Cc1cccc(C)c1NC(=O)CN1CCCC1=O', 'area under concentration-response curve', 544),
  ('C[C@@H](C1CC[C@@]2(O)C3=CC(=O)[C@@H]4C[C@@H](O)[C@@H](O)C[C@]4(C)[C@H]3CC[C@]12C)[C@H](O)CCC(C)(C)O (stereo partly specified)', 'area under concentration-response curve', 488),
  ('CC(C)C1=N[N](C\2=C1C(=O)N\C(=N2)CC3=CC=C(OCCO)C=C3)C4=C(Cl)C=CC=C4Cl', 'area under concentration-response curve', 183),
  ('C\C1=C(/C)C(=O)\C(=C(\C)C1=O)C(CCCCCC(O)=O)C2=CC=CC=C2 (stereo unspecified)', 'area under concentration-response curve', 613),
  ('CN(C)CCc1c[nH]c2ccc(C[S+](=O)([O-])N3CCCC3)cc12', 'area under concentration-response curve', 612),
  ('CCCOc1ccn2c(C(C)=O)cc(-c3ccccc3[S+](C)(=O)[O-])c2c1', 'area under concentration-response curve', 445),
  ('O=C1NC(=O)/C(=C/c2ccc(-c3ccc(F)cc3O)o2)S1', 'area under concentration-response curve', 611),
  ('C=CC(=O)N[C@H]1CCOC[C@H]1Nc1ncc2cc(-c3c(Cl)c(OC)cc(OC)c3Cl)ccc2n1', 'area under concentration-response curve', 554),
  ('CC(C(C)N1CC(=O)NC(=O)C1)N1CC(=O)NC(=O)C1 (stereo unspecified)', 'area under concentration-response curve', 605),
  ('CNCCCOc1cc(F)c(-c2c(Cl)nc3ncnn3c2N[C@@H](C)C(F)(F)F)c(F)c1', 'area under concentration-response curve', 403),
  ('CN1CCCN=C1/C=C/c1cccs1', 'area under concentration-response curve', 211);
